- measured_on: human orexin-1 receptor (Homo sapiens (Human))
- Sequence (O43613 whole entry): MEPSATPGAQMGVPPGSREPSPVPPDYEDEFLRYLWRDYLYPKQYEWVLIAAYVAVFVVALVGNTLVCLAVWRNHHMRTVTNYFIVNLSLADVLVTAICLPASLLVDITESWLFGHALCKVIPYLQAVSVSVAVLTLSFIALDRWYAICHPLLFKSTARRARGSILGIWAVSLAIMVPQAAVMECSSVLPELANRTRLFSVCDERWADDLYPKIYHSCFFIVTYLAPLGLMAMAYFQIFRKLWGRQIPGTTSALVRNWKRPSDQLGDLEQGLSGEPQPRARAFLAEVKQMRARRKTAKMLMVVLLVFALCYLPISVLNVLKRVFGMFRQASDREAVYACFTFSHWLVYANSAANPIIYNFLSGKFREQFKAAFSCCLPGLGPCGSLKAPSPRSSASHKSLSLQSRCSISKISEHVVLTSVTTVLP
- measurement_description: In vitro assay: intracellular calcium measurements (FLIPR), antagonistic activity
- test_settings: CHO cells expressing human orexin-1 receptor, orexin-A agonist, geometric mean, read-out: IC50 Ox1
- Experimental: In Vitro Assay: Intracellular Calcium Measurements: […] Within the Fluorescent Imaging Plate Reader (FLIPR Tetra, Molecular Devices), antagonists are added to the plate in a volume of 10 μl/well, incubated for 120 min and finally 10 μl/well of agonist is added. […] The calculated IC50 values may fluctuate depending on the daily cellular assay performance. […]
pIC50: −log10 of the molar value.
endpoint: pIC50

These solved cases illustrate the format of a correct answer.
>>> test_value("C=C1C[C@@H](c2nc3cc(OC)ccc3[nH]2)N(C(=O)c2ccccc2-c2ccc(C)cc2)C1")
6.53
>>> test_value("C=C1C[C@@H](c2nc3c(C)c(Cl)ccc3[nH]2)N(C(=O)c2cc(C)ccc2-n2nccn2)C1")
7.92
>>> test_value("Cc1nc(C(=O)N2CCCC2c2nc3c(Cl)cc(C(F)(F)F)cc3[nH]2)c(-c2ccccc2)s1 (stereo not shown)")
7.41
>>> test_value("COc1ccc(-n2nccn2)c(C(=O)N2CCC[C@@]2(C)c2nc3c(F)c(F)ccc3[nH]2)c1F")
6.71
>>> test_value("C[C@@]1(c2nc3cc(C(F)(F)F)ccc3[nH]2)CCCN1C(=O)c1cc(Cl)ccc1-n1nccn1")
7.89

[a] Cc1ccc(-c2ccccc2F)c(C(=O)N2CCC[C@@]2(C)c2nc3cc(C)c(C)cc3n2CCF)c1
[b] Cc1cc2[nH]c([C@@H]3[C@@H](C)CCN3C(=O)c3c(F)cccc3-c3ccccc3)nc2cc1Cl
[c] Cc1nc(C(=O)N2CCCC2c2nc3c(CO)cccc3[nH]2)c(-c2ccccc2)s1 (stereo not shown)
[d] Cc1ccc(C(=O)N2CCC[C@@]2(C)c2nc3cc(C)c(C)cc3[nH]2)c(-n2nccn2)c1
stdin: Hey, quick one: sort these by pIC50, largest value first please. Could you list the labels in the order requested?
stdout: b, d, a, c

[a] COc1ccc2nc([C@@H]3CCCN3C(=O)c3ccccc3-n3nccn3)[nH]c2c1
[b] Cc1nc(C(=O)N2CCC[C@@]2(C)c2nc3cc(OC(F)(F)F)ccc3[nH]2)c(-c2cccc(Cl)c2Cl)s1
stdin: Of the pair a and b , name the member with the lesser recorded pIC50. Write down the label attached to your selection.
stdout: a

[I] C=C1C[C@@H](c2nc3cc(C(C)(C)C)ccc3[nH]2)N(C(=O)c2cc(C)ccc2-n2cccn2)C1
[II] Cc1ccc(-n2nccn2)c(C(=O)N2CCC[C@@]2(C)c2nc3c(C)cc(C)cc3[nH]2)c1
stdin: In the pair I and II , the larger recorded pIC50 belongs to which? Output the label that corresponds to your choice.
stdout: II

[P] Cc1ccc(-c2cccc(F)c2)c(C(=O)N2CCC[C@@]2(C)c2nc3cc(C)c(C)cc3[nH]2)c1
[Q] Cc1ccc(-c2ccccc2C(=O)N2CCC[C@@]2(C)c2nc3c(C)c(C)ccc3[nH]2)cc1
[R] C[C@@]1(c2nc3cc(C(F)(F)F)ccc3[nH]2)CCCN1C(=O)c1c(F)cccc1-n1nccn1
stdin: Write the entries in order, lowest recorded pIC50 first. Please respond with the labels ordered as the question requires.
stdout: R, Q, P

[a] CSc1cccc2nc([C@@H]3CCCN3C(=O)c3nc(C)sc3-c3cc(F)cc(F)c3)[nH]c12
[b] COc1cc2nc([C@]3(C)CCCN3C(=O)c3cc(C)c(C)cc3-n3nccn3)n(C)c2cc1OC
stdin: Smaller pIC50 value? Options are a and b Please indicate the selected item by its label.
stdout: a

[1] Cc1ccc(-c2ccccc2C(=O)N2CC[C@H](C)[C@H]2c2nc3c(C)c(Cl)ccc3[nH]2)cc1
[2] C=C1C[C@@H](c2nc3c(C)c(C)ccc3[nH]2)N(C(=O)c2nc(C)sc2-c2ccc(C)c(C)c2)C1
[3] COCCn1c([C@]2(C)CCCN2C(=O)c2cc(C)ccc2-c2ccccc2F)nc2cc(C)c(C)cc21
[4] COc1cc2nc([C@@H]3[C@@H](C)CCN3C(=O)c3ccccc3-n3cccn3)[nH]c2cc1OC
[5] COc1cccc2[nH]c([C@@H]3[C@@H](C)CCN3C(=O)c3nc(C)sc3-c3cccc(Cl)c3)nc12
stdin: Could you please order the items by pIC50, going from the lowest number to the highest? Record the ranking as a list of labels in the requested order.
stdout: 4, 3, 5, 2, 1
(4: 6.55, 3: 7.06, 5: 7.82, 2: 8.22, 1: 9.05)

[A] CSc1cccc2nc([C@@H]3CCCN3C(=O)c3cnc(C)nc3-c3ccc(Cl)c(Cl)c3)[nH]c12
[B] C=C1C[C@@H](c2nc3ccc(Cl)c(C)c3[nH]2)N(C(=O)c2cc(C)ccc2-n2cccn2)C1
[C] CSc1cccc2nc([C@@H]3CCCN3C(=O)c3nc(C)sc3-c3cccc(Cl)c3Cl)[nH]c12
stdin: Kindly order the items shown according to pIC50, from the highest value down. Enter labels, ranked according to the request.
stdout: A, B, C
(A: 8.30, B: 7.12, C: 6.89)

[a] COc1cc2nc([C@]3(C)CCCN3C(=O)c3ccccc3-n3nccn3)[nH]c2cc1OC
[b] COc1ccc(-n2nccn2)c(C(=O)N2CC[C@H](C)[C@H]2c2nc3c(C)cc(Cl)cc3[nH]2)c1
[c] COc1cccc(-c2sc(C)nc2C(=O)N2CCC[C@H]2c2nc3cccc(SC)c3[nH]2)c1
stdin: Sort (3 compounds) by pIC50: min first. As an answer, provide the labels arranged in the order called for.
stdout: a, c, b

* * *

- measured_on: human orexin-2 receptor (Homo sapiens (Human))
- Sequence (O43614 whole entry): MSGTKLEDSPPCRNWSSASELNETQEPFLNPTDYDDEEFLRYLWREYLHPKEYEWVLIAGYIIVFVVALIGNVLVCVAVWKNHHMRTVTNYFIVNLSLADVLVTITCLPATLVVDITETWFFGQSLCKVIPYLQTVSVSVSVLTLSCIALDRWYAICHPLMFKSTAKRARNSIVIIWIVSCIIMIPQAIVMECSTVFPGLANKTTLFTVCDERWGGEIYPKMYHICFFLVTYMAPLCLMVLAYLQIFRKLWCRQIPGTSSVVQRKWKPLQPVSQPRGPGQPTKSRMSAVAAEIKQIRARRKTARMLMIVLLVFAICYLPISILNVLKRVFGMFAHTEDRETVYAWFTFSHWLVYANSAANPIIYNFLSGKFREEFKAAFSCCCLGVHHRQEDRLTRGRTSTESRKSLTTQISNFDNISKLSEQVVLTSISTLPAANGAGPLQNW
- measurement_description: In vitro assay: intracellular calcium measurements (FLIPR), antagonistic activity
- test_settings: CHO cells expressing human orexin-2 receptor, orexin-A agonist, geometric mean, read-out: IC50 Ox2
endpoint: IC50 (nM)

>>> test_value("Cc1ccc(-c2ccc(C)cc2C(=O)N2CCC[C@@]2(C)c2nc3cc(C)c(C)cc3n2C)cc1")
20
>>> test_value("C=C1C[C@@H](c2nc3cc(C(C)(C)C)ccc3[nH]2)N(C(=O)c2nc(C)ccc2-n2nccn2)C1")
15

[A] CO[C@H]1CN(C(=O)c2nc(C)sc2-c2ccccc2)C(C)(c2nc3c(C)cccc3[nH]2)C1 (stereo partly shown)
[B] COc1ccc2nc([C@@H]3CCCN3C(=O)c3nc(C4CC4)sc3-c3ccc(C)cc3)[nH]c2c1
stdin: Returns the identifier with the smallest measured IC50 among A and B . Record your answer as the label of the chosen record.
stdout: A

* * *

- measured_on: human orexin-2 receptor (Homo sapiens (Human))
- measurement_description: In vitro assay: intracellular calcium measurements (FLIPR), antagonistic activity
- test_settings: CHO cells expressing human orexin-2 receptor, orexin-A agonist, geometric mean, read-out: IC50 Ox2
- Method: In Vitro Assay: Intracellular Calcium Measurements: […] Within the Fluorescent Imaging Plate Reader (FLIPR Tetra, Molecular Devices), antagonists are added to the plate in a volume of 10 μl/well, incubated for 120 min and finally 10 μl/well of agonist is added. […] The calculated IC50 values may fluctuate depending on the daily cellular assay performance. […]
pIC50: −log10 of the molar value.
endpoint: pIC50

Past entries and their recorded results:
>>> test_value("Cc1ccc(-n2nccn2)c(C(=O)N2CCC[C@@]2(C)c2nc3cc(F)c(Br)cc3[nH]2)c1F")
6.39
>>> test_value("Cc1ccc(-n2nccn2)c(C(=O)N2CCC[C@H]2c2nc3cc(Cl)ccc3[nH]2)c1")
7.29
>>> test_value("C=C1C[C@@H](c2nc3cc(OC)ccc3[nH]2)N(C(=O)c2ccsc2-c2cccc(C)c2)C1")
7.72
>>> test_value("Cc1ccc(-n2nccn2)c(C(=O)N2CCC[C@@]2(C)c2nc3c(C(C)C)cccc3[nH]2)c1")
7.23
>>> test_value("C=C1C[C@@H](c2nc3cccc(C)c3[nH]2)N(C(=O)c2cc(Cl)ccc2-n2nccn2)C1")
7.49
>>> test_value("CSc1ccc2nc([C@@H]3CCCN3C(=O)c3cnc(C)nc3-c3cc(Cl)cc(Cl)c3)[nH]c2c1")
6.60

[A] C[C@@]1(c2nc3cc(C(F)(F)F)c(Cl)cc3[nH]2)CCCN1C(=O)c1cc(Cl)ccc1-n1nccn1
[B] C[C@@]1(c2nc3cc(C(F)(F)F)c(Cl)cc3[nH]2)CCCN1C(=O)c1cc(C(F)(F)F)ccc1-n1nccn1
stdin: Which one would you say has the larger pIC50 value: A , or B ? Use the label to indicate which entry you chose.
stdout: A
(A: 7.68, B: 6.68)

[A] C=C1C[C@@H](c2nc3cc(OC)ccc3[nH]2)N(C(=O)c2nc(C)sc2-c2ccc(Cl)cc2)C1
[B] COc1ccc2nc([C@@H]3C[C@@H](OC)CN3C(=O)c3cc(F)ccc3-n3nccn3)[nH]c2c1
stdin: Which value of pIC50 is smaller, the one for A or the one for B ? Kindly state the label of the option you pick.
stdout: B
(B: 7.17, A: 7.72)
